- System: HRV16
- test: HRV16 HELA EC50 (cytopathic effect in H1-HeLa cells)
- Type: cell-based
- conditions: 96 h, H1-HeLa cells, 33° C., read-out: HRV16 HELA EC50
Known pEC50 of a selection of compounds
Would you please state pEC50, meaning minus log10 of the concentration in mol/L, as a bare number?

Worked set:
compound=CC(C)C(=O)Nc1ncnn2c([C@@H]3O[C@](C#N)(CO[P@@](=O)(N[C@@H](C)C(=O)OC4CCCCC4)Oc4ccccc4)[C@@H](O)[C@H]3O)ccc12 readout_name=pEC50 result_value=5.96
compound="C[C@H](NP(=O)(OC[C@@]1(C#N)O[C@@H](c2ccc3c(N)ncnn23)[C@H](O)[C@@H]1O)Oc1ccccc1)C(=O)OCCN(C)C (stereo partly drawn)" readout_name=pEC50 result_value=4.89

Consider the additional compound presented here.
Lookup: State its pEC50 for this compound: C[C@H](NP(=O)(OC[C@@]1(C#N)O[C@@H](c2ccc3c(N)ncnn23)[C@H](O)[C@@H]1O)Oc1ccccc1)C(=O)OC1CCC(F)(F)CC1 (single isomer, unassigned) [Example 176]
Found: 6.26

Where these numbers come from: patent US20230295201A1
